tested on: MDR1-MDCK cell monolayers; assay: MDCK-MDR1 permeability assay (BBB penetration potential); assay type: in vitro ADME; details: 5 μM, 120 minutes, pH 7.4
Threshold-based label: MDCK-MDR1: % Recov B-A under 70% gives Satisfied, MDCK-MDR1: % Recov B-A not under 70% gives Not satisfied.

CN(c1nnc(-c2ccc(-c3cnn(C)c3)cc2O)s1)[C@@H]1C[C@H]2CC[C@H](N2)[C@@H]1F [Compound E-3B]: Not satisfied

Okay, now this compound:
Find out if reported MDCK-MDR1: % Recov B-A for CN(c1nnc(-c2ccc(-c3cn[nH]c3)cc2O)s1)[C@@H]1C[C@H]2CC[C@H](N2)[C@@H]1F (single isomer, unassigned) [Compound E-7B] is less than 70% Not satisfied

====

Some compounds, each annotated with its measured Papp B→A at 120 min, 5 μM.
system: MDR1; assay: MDCK-MDR1 permeability assay (BBB penetration potential); assay type: in vitro ADME; conditions: dog, MDCK-MDR1; 5 μM, 120 minutes, pH 7.4
Only the number, expressed in ×10⁻⁶ cm/s, is required.

Example entries and their recorded answers appear below.
COc1cc(-c2ccc(-c3nnc(N(C)[C@@H]4C[C@H]5CC[C@H](N5)[C@@H]4F)s3)c(O)c2)ccn1 (single isomer, unassigned) [Compound E-11A]: 9.76
COc1cc(-c2ccc(-c3nnc(N(C)[C@H]4C[C@@H]5CC[C@@H](N5)[C@H]4F)s3)c(O)c2)ncn1 (single isomer, unassigned): 9.86
CN(c1nnc(-c2ccc(-c3cnn(C)c3)cc2O)s1)[C@H]1C[C@@H]2CCC[C@@H](N2)[C@H]1F: 20.4
CN(c1nnc(-c2ccc(-c3cn[nH]c3)cc2O)s1)[C@H]1C[C@@H]2CC[C@@H](N2)[C@H]1F (single isomer, unassigned): 60.6
CN(c1nnc(-c2ccc(-c3cnn(C)c3)cc2O)s1)[C@H]1C[C@@H]2CC[C@H]([C@H]1F)N2C (single isomer, unassigned) [Compound E-25A]: 32
CN(c1nnc(-c2ccc(-c3cn[nH]c3)cc2O)s1)[C@H]1C[C@@H]2CC[C@H]([C@H]1F)N2C (single isomer, unassigned) [Compound E-23A]: 41.2
CN(c1nnc(-c2ccc(-c3cnn(C)c3)cc2O)s1)[C@@H]1C[C@H]2CCC[C@H](N2)[C@@H]1F: 33.1
COc1cc(-c2ccc(-c3nnc(N(C)[C@@H]4C[C@H]5CC[C@H](N5)[C@@H]4F)s3)c(O)c2)ncn1 (single isomer, unassigned): 19.1
CN(c1nnc(-c2ccc(-c3cnn(CF)c3)cc2O)s1)[C@H]1C[C@@H]2CC[C@@H](N2)[C@H]1F (single isomer, unassigned) [Compound E-10A]: 50.8
CN(c1nnc(-c2ccc(-c3cn[nH]c3)cc2O)s1)[C@@H]1C[C@H]2CC[C@@H]([C@@H]1F)N2C (single isomer, unassigned) [Compound E-23B]: 39

Supply measured Papp B→A at 120 min, 5 μM of CN(c1nnc(-c2cc(F)c(-c3cn[nH]c3)cc2O)s1)[C@H]1C[C@@H]2CC[C@H]([C@H]1F)N2C (single isomer, unassigned) [Compound E-24A] in your reply. 30.8

Return Papp B→A at 120 min, 5 μM (reported value) for this compound: CN(c1nnc(-c2ccc(-c3ccn(CF)c(=O)c3)cc2O)s1)[C@@H]1C[C@H]2CC[C@H](N2)[C@@H]1F (single isomer, unassigned) [Compound E-15A] 55.6
